Tested on: Inhibin beta A chain (activin A)
Assay procedure: INHBA (activin A) binders on microarrays, primary screen, biochemical, small-molecule microarray, 635 nm fluorescence scan (AID 1107);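 also: mouse activin A protein probed at 4.33 µg/mL on printed slides; score merges bound-protein fluorescence near 667 nm with spot signal-to-noise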
Condition: small-molecule microarray binding, higher = more signal
Task for the reader: assign each of the following molecules its reported composite z-score.
Could you keep your reply to the number by itself?

Entry "C=CC[C@]1(C(=O)N2CCCCC2)N=C(c2ccc(OCCCO)cc2)O[C@H]1c1ccccc1" , composite z-score reported as 1.11

// field: composite z-score; key: "C=CCNC(=O)[C@H]1[C@@H]2C(=O)O[C@@H](c3ccccc3)[C@@H](c3ccccc3)N2[C@@H](c2ccccc2OCCO)[C@]12C(=O)Nc1ccc(C#CC3=CCCCC3)cc12" ; value = 1.17

Entry "O=C(NCc1ccccc1)[C@@]1(Cc2ccccc2)N=C(c2ccc(OCCCO)cc2)O[C@H]1c1ccccc1" , composite z-score reported as 0.425

Reported composite z-score for "O=C1O[C@H](c2ccccc2)[C@H](c2ccccc2)N2[C@H]1[C@@H](C(=O)Nc1nc3ccccc3s1)[C@]1(C(=O)Nc3ccc(C#CCCO)cc31)[C@H]2c1ccc(OCCO)cc1" was 0.408
